target: human GnRH receptor (Homo sapiens); construct: expressed in transfected cells; host or cells: HEK 293 (hGnRH-R/293, from Dr. Stuart Sealfon); assay: Radioligand binding, 125I-GnRH-A displacement, membranes of HEK 293 cells with human GnRH receptor; settings: repeat of % Inhib. at 1 uM
Sequence (P30968 whole entry): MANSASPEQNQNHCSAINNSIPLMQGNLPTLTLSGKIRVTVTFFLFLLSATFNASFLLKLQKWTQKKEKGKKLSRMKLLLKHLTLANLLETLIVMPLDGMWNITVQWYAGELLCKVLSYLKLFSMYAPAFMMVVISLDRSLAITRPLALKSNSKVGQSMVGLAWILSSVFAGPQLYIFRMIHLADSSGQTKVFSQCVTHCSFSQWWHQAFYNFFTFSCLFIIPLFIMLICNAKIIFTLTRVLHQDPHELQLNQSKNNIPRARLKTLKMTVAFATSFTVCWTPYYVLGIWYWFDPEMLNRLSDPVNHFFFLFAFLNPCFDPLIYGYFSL
Field: Repeats @ 1 uM hGnRH. Provide a value for each of the compounds that follow.
Give bare numbers.

// below: answered compounds
{"compound": "Cc1cc2c(cc1Cc1ccc(C(=O)NC(c3ccccc3)c3ccccc3)o1)C(C)(C)CCC2(C)C [drawing 1077]", "Repeats @ 1 uM hGnRH": "−7"}
{"compound": "Cc1cc2c(cc1Cc1ccc(C(=O)NC3CCCc4ccccc43)o1)C(C)(C)CCC2(C)C (stereo not drawn) [drawing 1150]", "Repeats @ 1 uM hGnRH": 32}
{"compound": "Cc1cc2c(cc1Cc1ccc(C(=O)N3CCN(c4ccccc4)CC3)o1)C(C)(C)CCC2(C)C [drawing 1121]", "Repeats @ 1 uM hGnRH": 6}

Respectfully, I request Repeats @ 1 uM hGnRH for each entry included below.
1. Cc1cc2c(cc1Cc1ccc(C(=O)NC(c3ccccc3)C(O)c3ccccc3)o1)C(C)(C)CCC2(C)C (stereo not drawn) [drawing 1072]
2. Cc1cc2c(cc1Cc1ccc(C(=O)NC(CO)Cc3ccccc3)o1)C(C)(C)CCC2(C)C (stereo not drawn) [drawing 1137]
3. Cc1cc2c(cc1Cc1ccc(C(=O)NC(c3ccccc3)c3ccccc3)o1)C(C)(C)CCC2(C)C [drawing 1071]

1. 57
2. 20
3. 2

* * *

Field: inhibition at 10 µM. Provide a value for each of the molecules that follow.
Target: mouse GnRH receptor (Mus musculus, UniProt Q01776)
Construct: expressed in transfected cells; host or cells: 293 cells
Sequence (Q01776 1-327): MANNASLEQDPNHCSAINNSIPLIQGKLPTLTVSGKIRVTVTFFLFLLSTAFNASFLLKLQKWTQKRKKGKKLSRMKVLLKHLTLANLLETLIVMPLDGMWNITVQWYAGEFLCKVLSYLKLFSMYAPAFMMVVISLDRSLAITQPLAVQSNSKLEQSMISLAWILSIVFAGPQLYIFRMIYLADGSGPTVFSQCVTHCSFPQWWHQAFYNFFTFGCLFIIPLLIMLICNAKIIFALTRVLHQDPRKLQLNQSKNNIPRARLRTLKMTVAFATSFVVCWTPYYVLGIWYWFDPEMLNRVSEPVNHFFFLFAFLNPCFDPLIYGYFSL
Experiment: Radioligand binding, 125I-GnRH-A, 293 cells expressing mouse GnRH receptors
Conditions: 10 uM; read-out: % Inhib. @ 10 uM mGnRH
Answers are plain numbers, in %.

// below: answered molecules
{"molecule": "Cc1cc2c(cc1Cc1ccc(C(=O)N(Cc3ccccc3Cl)CC(c3ccccc3)c3ccccc3)o1)C(C)(C)CCC2(C)C", "target of assay": "mouse GnRH receptor (Mus musculus, UniProt Q01776)", "inhibition at 10 µM / %": 8}
{"molecule": "COc1cc2c(cc1OC)C(c1ccccc1)N(C(=O)c1ccc(Cc3cc4c(cc3C)C(C)(C)CCC4(C)C)o1)CC2 (stereo not shown)", "target of assay": "mouse GnRH receptor (Mus musculus, UniProt Q01776)", "inhibition at 10 µM / %": 29}
{"molecule": "Cc1cc2c(cc1Cc1ccc(C(=O)N3CCN(CC(=O)N4CCCC4)CC3)o1)C(C)(C)CCC2(C)C [drawing 1432]", "target of assay": "mouse GnRH receptor (Mus musculus, UniProt Q01776)", "inhibition at 10 µM / %": 79}

# input molecule: COc1cc2c(cc1OC)C(CC#N)N(C(=O)c1ccc(Cc3cc4c(cc3C)C(C)(C)CCC4(C)C)o1)CC2 (stereo not shown) [drawing 1582] ; wanted: its inhibition at 10 µM
52

* * *

target: rat GnRH receptor (Rattus norvegicus, UniProt P30969); assay: Radioligand binding, 125I-GnRH-A, rat pituitary membranes; set-up: membranes were prepared from rat pituitary; from tissue; host or cells: rat pituitary; conditions: means ± SE of at least three experiments performed in duplicate; read-out: Rat IC50
Sequence (P30969 whole entry): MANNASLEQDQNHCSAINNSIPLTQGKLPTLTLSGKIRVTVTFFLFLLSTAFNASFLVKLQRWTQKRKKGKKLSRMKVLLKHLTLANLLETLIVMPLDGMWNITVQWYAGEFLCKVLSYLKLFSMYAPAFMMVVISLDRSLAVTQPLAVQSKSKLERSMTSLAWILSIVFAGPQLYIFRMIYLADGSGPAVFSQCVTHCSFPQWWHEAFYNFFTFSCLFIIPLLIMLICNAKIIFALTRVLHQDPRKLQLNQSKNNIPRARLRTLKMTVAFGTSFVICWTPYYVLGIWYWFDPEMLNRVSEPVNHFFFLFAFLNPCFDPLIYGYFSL
measured metric: IC50 (nM)
One number for each entry, in nM.

// below: answered compounds
{"compound": "Cc1cc2c(cc1Cc1ccc(C(=O)NCC3CCC(CNC(=N)N)CC3)o1)C(C)(C)CCC2(C)C (stereo not drawn)", "unit symbol": "nM", "IC50": 680}
{"compound": "Cc1cc2c(cc1Cc1ccc(C(=O)NC[C@H]3CC[C@H](CNC(=N)N)CC3)o1)C(C)(C)CCC2(C)C", "unit symbol": "nM", "IC50": 390}
{"compound": "Cc1cc2c(cc1Cc1ccc(C(=O)NC[C@H]3CC[C@H](C(=O)O)CC3)o1)C(C)(C)CCC2(C)C", "unit symbol": "nM", "IC50": 3080}
{"compound": "Cc1cc2c(cc1Cc1ccc(C(=O)NCC3CCCC(CNc4nccc(NCC5CCCO5)n4)C3)o1)C(C)(C)CCC2(C)C (stereo not drawn)", "unit symbol": "nM", "IC50": 9}
{"compound": "CCNC(=O)[C@@H]1CCCN1C(=O)[C@H](CCCNC(=N)N)NC(=O)[C@H](CC(C)C)NC(=O)[C@@H](C)NC(=O)[C@H](Cc1ccc(O)cc1)NC(=O)[C@H](CO)NC(=O)[C@H](Cc1c[nH]c2ccccc12)NC(=O)[C@H](Cc1c[nH]cn1)NC(=O)[C@@H]1CCC(=O)N1 [GnRH-A, [des-Gly^10,D-Ala^6]GnRH ethylamide, reference compound]", "unit symbol": "nM", "IC50": 0.49}

Moving on to the next compound.
# input compound: "Cc1cnc(CNC(=O)c2ccc(Cc3cc4c(cc3C)C(C)(C)CCC4(C)C)o2)cn1" ; wanted: its IC50
60

* * *

target: mouse GnRH receptor (Mus musculus, UniProt Q01776); construct: expressed in transfected cells; host or cells: 293 cells; assay: Radioligand binding, 125I-GnRH-A, 293 cells expressing mouse GnRH receptors; conditions: 1 h, substrate remaining; 10 uM compound; closer to zero = closer to 100% inhibition; read-out: S%R 10 uM mGnRHR
Field: remaining activity at 10 µM. Provide a value for each of the compounds that follow.
Give bare numbers, in %.

{"compound": "CCN1CC(N(Cc2ccccc2C#N)C(=O)c2ccc(Cc3cc4c(cc3C)C(C)(C)CCC4(C)C)o2)CN1CC", "remaining activity at 10 µM (%)": 0}
{"compound": "CCCCN(C(=O)c1ccc(Cc2cc3c(cc2C)C(C)(C)CCC3(C)C)o1)C(C)c1ccccc1 (stereo not drawn)", "remaining activity at 10 µM (%)": 35}
{"compound": "Cc1cc2c(cc1Cc1ccc(C(=O)NCCCN3CCOCC3)o1)C(C)(C)CCC2(C)C", "remaining activity at 10 µM (%)": -4}
{"compound": "C=C(C)CNC(=O)c1ccc(Cc2cc3c(cc2C)C(C)(C)CCC3(C)C)o1", "remaining activity at 10 µM (%)": 8}
{"compound": "CCN1CC(N(CCC(C)CCCC(C)(C)O)C(=O)c2ccc(Cc3cc4c(cc3C)C(C)(C)CCC4(C)C)o2)CN1CC (stereo not drawn)", "remaining activity at 10 µM (%)": -4}

Respectfully, I request remaining activity at 10 µM for each entry included below.
1. Cc1cc2c(cc1Cc1ccc(C(=O)N3CCC(CNC(=O)C(F)(F)F)CC3)o1)C(C)(C)CCC2(C)C
2. Cc1cc2c(cc1Cc1ccc(C(=O)N(Cc3cccnc3)Cc3cccn3C)o1)C(C)(C)CCC2(C)C
3. CCC(C)CNC(=O)c1ccc(Cc2cc3c(cc2C)C(C)(C)CCC3(C)C)o1 (stereo not drawn)
4. Cc1cc2c(cc1Cc1ccc(C(=O)N3CC(C)OC(C)C3)o1)C(C)(C)CCC2(C)C (stereo not drawn)
5. Cc1cc2c(cc1Cc1ccc(C(=O)N3CCN(CC(=O)N4CCCC4)CC3)o1)C(C)(C)CCC2(C)C
6. Cc1cc2c(cc1Cc1ccc(C(=O)NCc3ccc(F)c(F)c3)o1)C(C)(C)CCC2(C)C
7. Cc1cc2c(cc1Cc1ccc(C(=O)N3CCN(CCO)CC3)o1)C(C)(C)CCC2(C)C

[59, 0, 28, 17, 21, 0, 32]

Respectfully, I request remaining activity at 10 µM for each entry included below.
1. CCN1CC(N(Cc2ccc(N(C)C)cc2)C(=O)c2ccc(Cc3cc4c(cc3C)C(C)(C)CCC4(C)C)o2)CN1CC
2. CCCN(CCc1ccccn1)C(=O)c1ccc(Cc2cc3c(cc2C)C(C)(C)CCC3(C)C)o1
3. Cc1cc2c(cc1Cc1ccc(C(=O)NCCc3ccccn3)o1)C(C)(C)CCC2(C)C

6
1
-4

* * *

target: human GnRH receptor (Homo sapiens); construct: expressed in transfected cells; host or cells: HEK 293 (hGnRH-R/293, from Dr. Stuart Sealfon); experiment: Radioligand binding, 125I-GnRH-A displacement, membranes of HEK 293 cells with human GnRH receptor; details: 1 h, repeat of % Inhib. at 1 uM; read-out: Repeats @ 1 uM hGnRH
measured metric: inhibition at 1 µM (%)
Give bare numbers, in %.

// below: answered compounds
{"compound": "Cc1cc2c(cc1Cc1ccc(C(=O)NCCNc3ccccc3)o1)C(C)(C)CCC2(C)C [drawing 1080]", "measured metric": "inhibition at 1 µM", "unit symbol": "%", "experimental result": 72}
{"compound": "Cc1cc2c(cc1Cc1ccc(C(=O)Nc3nc(N(C)C)nc4nc[nH]c34)o1)C(C)(C)CCC2(C)C [drawing 1008]", "measured metric": "inhibition at 1 µM", "unit symbol": "%", "experimental result": -9}
{"compound": "Cc1cc2c(cc1Cc1ccc(C(=O)NCC3CCNCC3)o1)C(C)(C)CCC2(C)C [drawing 981]", "measured metric": "inhibition at 1 µM", "unit symbol": "%", "experimental result": 24}
{"compound": "Cc1cc2c(cc1Cc1ccc(C(=O)N3CCN(c4ncccn4)CC3)o1)C(C)(C)CCC2(C)C [drawing 1124]", "measured metric": "inhibition at 1 µM", "unit symbol": "%", "experimental result": 3}
{"compound": "Cc1cc2c(cc1Cc1ccc(C(=O)NCCCN(C)c3ccccc3)o1)C(C)(C)CCC2(C)C [drawing 1000]", "measured metric": "inhibition at 1 µM", "unit symbol": "%", "experimental result": 70}

Respectfully, I request inhibition at 1 µM for each entry included below.
1. Cc1cc2c(cc1Cc1ccc(C(=O)NC(CCO)c3ccccc3)o1)C(C)(C)CCC2(C)C (centres unmarked)
2. Cc1cccc(CNC(=O)c2ccc(Cc3cc4c(cc3C)C(C)(C)CCC4(C)C)o2)c1 [drawing 1174]
3. Cc1ccccc1CNC(=O)c1ccc(Cc2cc3c(cc2C)C(C)(C)CCC3(C)C)o1 [drawing 1097]

23
95
86

Ref: patent US7101878B1
